// compounds with reported pIC50 on human PDE10A2 (Homo sapiens (Human), UniProt Q9Y233), multi-publication
pIC50: −log10 of the molar value.
measured_quantity: pIC50

Some compounds with known pIC50 results, for comparison:
# compound, meas_value
measured = [
    ("COc1cccn2nc(/C=C/c3nc(-c4ccoc4)cn3C)nc12", 7.33),
    ("O=C(Nc1cccnc1C(=O)N1CCCCC1)c1nc(C2CC2)cnc1Nc1cncnc1", 7.79),
]

a = Cc1nc2ccc(C3CC3)nc2n2c(-c3cc(OC4COCC4O)ccc3F)nnc12 (racemic)
b = CC(C)N(C)C(=O)c1cnn(C)c1C(=O)Nc1ccn2cc(-c3ccccc3)nc2n1
c = CCn1nc(N2CCCC2)nc1CCc1nc2ccccc2nc1C
Form: Sort by [pIC50] Order [ ascending ] Answer by listing the labels in the order asked for. c, b, a
(c: 7.26, b: 7.46, a: 7.66)
